The reported numbers originate from patent US12349673B2.

# experimentalProtocol: Method A: solubility of active ingredient in solvent by NMR spectroscopy of a saturated solution
# Type: physicochemical
# experimentalParameters: nitrapyrin dissolved in the named solvent
measuredParameter: Active Ingredient Solubility: Nitrapyrin (wt %)
Numbers only, in wt %.

compound=CCCCCCCCOCC(C)=O quantitativereadout=42.9
compound="CCCCOCC(C)OCC(C)=O (stereo not drawn)" quantitativereadout=45.4

Here is another compound to look at.
The compound O=C1CCCCC1 showed Active Ingredient Solubility: Nitrapyrin equal to 65.2

* * *

# experimentalProtocol: Method A: solubility of active ingredient in solvent by NMR spectroscopy of a saturated solution
# Type: physicochemical
# experimentalParameters: 2-methyl-4-chlorophenoxyacetic acid dissolved in the named solvent
Provide the reported Active Ingredient Solubility: MCPA of each item.
Give bare numbers, in wt %.

Reference set, count: 4
compound=CCCCCCCCOCC(=O)CC quantitativereadout=15.3
compound=CCCCCOCC(C)=O quantitativereadout=22.9
compound="CCCCOCC(C)OCC(C)=O (centres unmarked)" quantitativereadout=23.7
compound=CCCCOCC(C)=O quantitativereadout=26.8

Continue with the next compound.
Entry under test: CCCCOCC(CC)OCC(=O)CC (centres unmarked) . Its Active Ingredient Solubility: MCPA was 17.1
